Tested on: G-401 tumor spheroids, viability % test/control
Assay: Anticancer human tumor G-401 cell line growth inhibition;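 further: spheroids exposed to compound for 7 days; 100% = DMSO vehicle-treated spheroids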
Details: second compound 3.16 µM; first compound 3.16 µM; stronger effect = lower value; spheroids with HUVEC and MSC
In this section we review reported viability, T/C values for a set of compounds.

Observe how each entry below is paired with its result.
[2H]c1nc(C)nc([2H])c1-c1cc(NC[C@@H](C)c2cccc3c(C(=O)NC)ccnc23)ncn1 + Cn1nnc2c(C(N)=O)ncn2c1=O ... 105%
COc1ccc([C@@H](O)c2cc(-c3ncnc4cc(N5CCOCC5)ccc34)c(F)cc2Cl)nn1 + Cn1nnc2c(C(N)=O)ncn2c1=O ... 20.6%
COc1cc(C)[nH]c(=O)c1CN1CCc2c(Cl)cc(C(OC)C3COC3)c(Cl)c2C1=O (stereo unspecified) + Cn1nnc2c(C(N)=O)ncn2c1=O ... 24.3%
Cc1cc(C)c(CNC(=O)c2cc(-c3ccc(CN4CCOCC4)cc3)cc3c2cnn3C2CCCC2)c(=O)[nH]1 + Cn1nnc2c(C(N)=O)ncn2c1=O ... 80.6%
CC(C)n1c(=O)n(C)c2cnc3cc(F)c(-c4ccc(OCCCN5CCCCC5)nc4)cc3c21 + Cn1nnc2c(C(N)=O)ncn2c1=O ... 99.4%

Would you kindly look at the next entry?
stdin: Query (compound): CC1COCCN1c1cc(-c2ccnn2C)c2ccnc(-c3ccn[nH]3)c2n1 (stereo unspecified) + Cn1nnc2c(C(N)=O)ncn2c1=O ; field requested: viability, T/C
stdout: 17.4%

====

System: G-401 tumor spheroids, viability % test/control
Assay: Anticancer human tumor G-401 cell line growth inhibition;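 further: spheroids exposed to compound for 7 days; 100% = DMSO vehicle-treated spheroids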
Conditions: second compound 0.3 µM; first compound 0.0316 µM; stronger effect = lower value; spheroids with HUVEC and MSC
Simple rule here: viability, T/C less than 5% is y, otherwise n.

COc1ccc([C@@H](O)c2cc(-c3ncnc4cc(N5CCOCC5)ccc34)c(F)cc2Cl)nn1 + CC[C@@]1(O)C(=O)OCc2c1cc1n(c2=O)Cc2cc3c(CN(C)C)c(O)ccc3nc2-1 ... y
Cc1cc(C)c(CNC(=O)c2cc(-c3ccc(CN4CCOCC4)cc3)cc3c2cnn3C2CCCC2)c(=O)[nH]1 + CC[C@@]1(O)C(=O)OCc2c1cc1n(c2=O)Cc2cc3c(CN(C)C)c(O)ccc3nc2-1 ... n
[2H]c1nc(C)nc([2H])c1-c1cc(NC[C@@H](C)c2cccc3c(C(=O)NC)ccnc23)ncn1 + CC[C@@]1(O)C(=O)OCc2c1cc1n(c2=O)Cc2cc3c(CN(C)C)c(O)ccc3nc2-1 ... y

stdin: Please indicate whether the reported viability, T/C of COc1cc(C)[nH]c(=O)c1CN1CCc2c(Cl)cc(C(OC)C3COC3)c(Cl)c2C1=O (stereo unspecified) + CC[C@@]1(O)C(=O)OCc2c1cc1n(c2=O)Cc2cc3c(CN(C)C)c(O)ccc3nc2-1 is strictly below 5%.
stdout: n

stdin: Please indicate whether the reported viability, T/C of CC(C)n1c(=O)n(C)c2cnc3cc(F)c(-c4ccc(OCCCN5CCCCC5)nc4)cc3c21 + CC[C@@]1(O)C(=O)OCc2c1cc1n(c2=O)Cc2cc3c(CN(C)C)c(O)ccc3nc2-1 is strictly below 5%.
stdout: n

stdin: Please indicate whether the reported viability, T/C of CC1COCCN1c1cc(-c2ccnn2C)c2ccnc(-c3ccn[nH]3)c2n1 (stereo unspecified) + CC[C@@]1(O)C(=O)OCc2c1cc1n(c2=O)Cc2cc3c(CN(C)C)c(O)ccc3nc2-1 is strictly below 5%.
stdout: n
